System: U251 CNS
Experiment: NCI tumour cell line growth inhibition, 48 h; in the data active means GI50 below about 0.43 µM; inactive means the rest
Classes to choose from: active, inactive

{"compound": "O=C(c1ccc(Nc2nccc(NCCCCNc3ccnc4cc(Cl)ccc34)n2)cc1)N1CCCCC1", "category": "inactive"}
{"compound": "OCC1OC(n2cnc3c(NCc4ccco4)ncnc32)C(O)C1O (configuration not stated)", "category": "inactive"}
{"compound": "O=c1[nH]c(=O)n(C2OC(CO)C(O)C2O)cc1F (configuration not stated)", "category": "active"}
{"compound": "CCS(=O)(=O)N1CCN(c2ccc(Nc3ncc(C(N)=O)c(NC4CC4)n3)cc2)CC1", "category": "inactive"}
{"compound": "CC(=O)[CH-]C(=O)c1ccccc1.CC(=O)[CH-]C(=O)c1ccccc1.CC(=O)[CH-]C(=O)c1ccccc1.[Br-].[Zr+4]", "category": "inactive"}
{"compound": "O=C(CC1Sc2ccccc2NC1=O)NNc1ccc(F)cc1 (configuration not stated)", "category": "inactive"}

Which outcome did this test record for the compound `COc1ccc2c(c1)C(=O)c1c-2n(CCCCl)c(=O)c2cc(N)ccc12` ?
inactive

Which outcome did this test record for the compound `CCC(=C(c1ccc(OCCN2CCCC2)cc1)c1ccc(OCCN2CCCC2)cc1)c1ccc(Cl)cc1` ?
inactive

Which outcome did this test record for the compound `O=C(COc1cccc(/C=C2\Oc3ccc4ccccc4c3C2=O)c1)c1ccc([N+](=O)[O-])cc1` ?
inactive

Which outcome did this test record for the compound `CCCCNCCCCCNc1cc(OC)cc2cccnc12` ?
inactive

Which outcome did this test record for the compound `CC(=O)/C=C/c1ccc(N(CCO)Cc2ccc(C(C)(C)C)cc2)cc1` ?
inactive

Which outcome did this test record for the compound C(=C\c1ccc(OCC2CO2)cc1)/C1=NCOC1 (configuration not stated) ?
inactive
